Biological target: APOL1 (Homo sapiens, UniProt O14791)
Test: MultiTox-Fluor Multiplex Cytotoxicity Assay, tet-inducible APOL1 T-REx-HEK293 cells (G0, G1 or G2 clone not specified for Table 20)
Settings: tet-induced, 24 hours with compound, ratio of dead to live cells, read-out: IP50 (i.e., IC50 for cell proliferation)

| COMPOUND | IC50 |
| --- | --- |
| CC(CO)(CO)Cn1cc(CN2CCC3(CC2)C(=O)Nc2ccc(Cl)cc23)nn1 | 50 to 500 nM |
| CN1C(=O)C2(CCN(Cc3cnn(CCS(C)(=O)=O)c3)CC2)c2cc(C(F)(F)F)ccc21 | ≥ 500 nM |
| O=C1Nc2ccc(Cl)cc2C12CCN(Cc1cn[nH]c1)CC2 | 50 to 500 nM |
| CS(=O)(=O)CCn1cc(CN2CCC3(CC2)C(=O)Nc2ccc(C#N)cc23)cn1 | ≥ 500 nM |
| CN1C(=O)C2(CCN(Cc3cn(CCO)nn3)CC2)c2cc(Cl)ccc21 | ≥ 500 nM |
| C[C@H]1C[C@@]2(CCN1Cc1cn(CC3(C(N)=O)CCOCC3)nn1)OCCc1ccc(Cl)cc12 | ≤ 50 nM |
| CC(C)(O)[C@@H](O)Cn1cc(CN2CCC3(CC2)OC(C(N)=O)c2ccc(Cl)cc23)cn1 (some centres unmarked) | ≤ 50 nM |
| CS(=O)(=O)c1ccc(CN2CCC3(CC2)OC(C(N)=O)c2ccc(Cl)cc23)cc1 (centres unmarked) | 50 to 500 nM |

###

Target: APOL1 (Homo sapiens)
Test: MultiTox-Fluor Multiplex Cytotoxicity Assay, tet-inducible APOL1 T-REx-HEK293 cells (G0, G1 or G2 clone not specified for Table 20)
Settings: tet-induced, 24 hours with compound, ratio of dead to live cells, read-out: IP50 (i.e., IC50 for cell proliferation)
pIC50: −log10 of the molar value.

| COMPOUND | ASSAY_SYSTEM | pIC50 |
| --- | --- | --- |
| CN1C(=O)C2(CCN(Cc3cnn(CCS(C)(=O)=O)c3)CC2)c2cc(Cl)ccc21 | APOL1 (Homo sapiens) | 6.30 to 7.30 |
| CCn1cc(CN2CC[C@]3(C[C@@H]2C)OCCc2ccc(Cl)cc23)cn1 | APOL1 (Homo sapiens) | ≥ 7.30 |
| C[C@H]1C[C@@]2(CCN1Cc1cnn(C3CCS(=O)(=O)C3)c1)OCCc1ccc(Cl)cc12 (some centres unmarked) | APOL1 (Homo sapiens) | ≥ 7.30 |
| C[C@H]1C[C@@]2(CCN1Cc1cn(CC3(O)CCOC3)nn1)OCCc1ccc(Cl)cc12 (some centres unmarked) | APOL1 (Homo sapiens) | ≥ 7.30 |
| C[C@H]1C[C@@]2(CCN1Cc1cn(C(C)(CO)CO)nn1)OCCc1ccc(Cl)cc12 | APOL1 (Homo sapiens) | ≤ 6.30 |
| C[C@H]1C[C@@]2(CCN1Cc1cn(Cc3cc(=O)[nH]c(C4CC4)n3)nn1)OCCc1ccc(Cl)cc12 | APOL1 (Homo sapiens) | 6.30 to 7.30 |
| Cc1ccc2c(c1)C1(CCN(Cc3ccccc3)C(C)C1)OCC2 (centres unmarked) [Compound 136] | APOL1 (Homo sapiens) | 6.30 to 7.30 |
| Cn1cc(CN2CCC3(CC2)OC(C(N)=O)c2ccc(Cl)cc23)ccc1=O (centres unmarked) | APOL1 (Homo sapiens) | 6.30 to 7.30 |

###

Molecular target: APOL1 (Homo sapiens, UniProt O14791)
Sequence (O14791 1-398): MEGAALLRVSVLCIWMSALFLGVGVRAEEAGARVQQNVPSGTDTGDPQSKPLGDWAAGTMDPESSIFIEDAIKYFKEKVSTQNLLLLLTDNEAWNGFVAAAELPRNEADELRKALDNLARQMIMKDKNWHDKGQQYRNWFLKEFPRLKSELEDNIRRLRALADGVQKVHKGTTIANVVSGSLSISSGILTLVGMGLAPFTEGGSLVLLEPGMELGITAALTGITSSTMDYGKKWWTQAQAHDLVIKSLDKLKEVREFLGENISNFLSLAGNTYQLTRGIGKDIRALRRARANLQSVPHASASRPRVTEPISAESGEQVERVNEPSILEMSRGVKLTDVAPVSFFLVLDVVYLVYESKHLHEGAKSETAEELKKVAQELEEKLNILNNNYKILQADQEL
Experiment: MultiTox-Fluor Multiplex Cytotoxicity Assay, tet-inducible APOL1 T-REx-HEK293 cells (G0, G1 or G2 clone not specified for Table 20)
Conditions: tet-induced, 24 hours with compound, ratio of dead to live cells, read-out: IP50 (i.e., IC50 for cell proliferation)
Experimental: Human embryonic kidney (HEK293) cell lines containing a tet-inducible expression system (T-REx™; Invitrogen, Carlsbad, CA) and Adeno-associated virus site 1 pAAVS1-Puro-APOL1 G0 or pAAVS1-Puro-APOL1 G1 or pAAVS1-Puro-APOL1 G2 Clones G0 DC2.13, G1 DC3.25, and G2 DC4.44 were grown in a T-225 flask at ˜90% confluency in cell growth media (DMEM, 10% Tet-free FBS, 2 mM L-glutamine, 100 Units/mL penicillin-streptomycin, 5 μg/mL blasticidin S HCl, 1 μg/mL puromycin dihydrochloride). […]

| MOLECULE | IC50 |
| --- | --- |
| NC(=O)C1OC2(CCN(Cc3cnn(-c4cccc(C(F)(F)F)c4)c3)CC2)c2cc(Cl)ccc21 (stereo not shown) [Compound 212] | ≤ 50 nM |
| Cc1c(CN2CCC3(CC2)OC(C(N)=O)c2ccc(Cl)cc23)cnn1-c1ccccc1 (stereo not shown) [Compound 213] | 50 to 500 nM |
| NC(=O)Cn1cc(CN2CCC3(CC2)OC(C(N)=O)c2ccc(Cl)cc23)cn1 (stereo not shown) [Compound 285] | 50 to 500 nM |
| C[C@H]1C[C@@]2(CCN1Cc1cccnc1)OCCc1ccc(Cl)cc12 [Compound 114] | ≤ 50 nM |
| Cc1ccc2c(c1)[C@]1(CCN(Cc3cnn(C)c3)[C@@H](C)C1)OCC2 [Compound 91] | ≤ 50 nM |
| CS(=O)(=O)CCn1cc(CN2CCC3(CC2)OC(C(N)=O)c2ccc(C(F)(F)F)cc23)nn1 (stereo not shown) [Compound 207] | ≥ 500 nM |
| C[C@H]1C[C@@]2(CCN1Cc1cn(C(CO)CO)nn1)OCCc1ccc(Cl)cc12 [Compound 151] | ≥ 500 nM |
| C[C@H]1C[C@@]2(CCN1Cc1cn(CC3(CO)CC3)nn1)OCCc1ccc(Cl)cc12 [Compound 148] | ≤ 50 nM |
| C[C@H]1C[C@@]2(CCN1Cc1cnn(CCS(C)(=O)=O)c1)OC[C@@H](O)c1ccc(Cl)cc12 [Compound 133] | ≤ 50 nM |
| Cn1cc(CN2CCC3(CC2)OCCc2ccc(C(F)(F)F)cc23)cn1 [Compound 128] | ≥ 500 nM |
| CS(=O)(=O)CCn1cc(CN2CCC3(CC2)C(=O)Nc2ccc(C(F)C(F)F)cc23)cn1 (stereo not shown) [Compound 32] | ≥ 500 nM |
| C[C@H]1C[C@@]2(CCN1Cc1cnn(C(C)(C)C)c1)OCCc1ccc(Cl)cc12 [Compound 120] | 50 to 500 nM |
| C[C@H]1C[C@@]2(CCN1Cc1cn(CC(O)C(C)(C)O)nn1)OCCc1ccc(Cl)cc12 (stereo partly shown) [Compound 157] | ≤ 50 nM |
| CCc1ccc2c(c1)C1(CCN(Cc3cnn(CCS(C)(=O)=O)c3)CC1)C(=O)N2C [Compound 84] | ≥ 500 nM |
| CNC(=O)C1OC2(CCN(Cc3cnn(C(C)C)c3)CC2)c2cc(Cl)ccc21 (stereo not shown) [Compound 298] | ≥ 500 nM |
| C[C@H]1C[C@@]2(CCN1Cc1cnn(CCS(C)(=O)=O)c1)C(=O)N(C)c1ccc(Cl)cc12 [Compound 80] | ≤ 50 nM |

###

Target: APOL1 (Homo sapiens, UniProt O14791)
Sequence (O14791 1-398): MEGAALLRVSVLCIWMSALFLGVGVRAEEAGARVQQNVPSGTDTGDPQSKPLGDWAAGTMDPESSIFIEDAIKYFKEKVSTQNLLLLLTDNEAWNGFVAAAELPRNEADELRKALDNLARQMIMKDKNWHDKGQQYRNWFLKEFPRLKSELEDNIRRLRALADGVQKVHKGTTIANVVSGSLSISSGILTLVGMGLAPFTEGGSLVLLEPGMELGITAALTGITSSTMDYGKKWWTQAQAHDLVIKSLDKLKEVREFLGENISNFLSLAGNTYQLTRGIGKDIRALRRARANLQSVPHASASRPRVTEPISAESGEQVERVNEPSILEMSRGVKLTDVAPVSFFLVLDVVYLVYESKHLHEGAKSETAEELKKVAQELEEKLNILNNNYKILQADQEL
Assay: MultiTox-Fluor Multiplex Cytotoxicity Assay, tet-inducible APOL1 T-REx-HEK293 cells (G0, G1 or G2 clone not specified for Table 20)
Settings: tet-induced, 24 hours with compound, ratio of dead to live cells, read-out: IP50 (i.e., IC50 for cell proliferation)
Quick reference for IC50 among some compounds
VALUE_TYPE: IC50

| COMPOUND | MEASURED |
| --- | --- |
| CS(=O)(=O)CCn1cc(CN2CCC3(CC2)C(=O)Nc2ccc(F)cc23)cn1 | ≥ 500 nM |
| Cc1ccc2c(c1)C1(CCN(Cc3cnn(C)c3)C(C)C1)OCC2 (stereo not drawn) [Compound 92] | ≤ 50 nM |
| Cn1cc(CN2CCC3(CC2)C(=O)Nc2ccc(CC(F)F)cc23)cn1 | ≥ 500 nM |
| Cc1ccc(CN2CCC3(CC2)OC(C(N)=O)c2ccc(Cl)cc23)nn1 (stereo not drawn) | ≥ 500 nM |
| NC(=O)c1ccc(CN2CCC3(CC2)OC(C(N)=O)c2ccc(Cl)cc23)cc1 (stereo not drawn) | ≤ 50 nM |
| CCc1ccc2c(c1)C1(CCN(Cc3cnn(-c4ccccc4)c3)CC1)OC2C(=O)NC (stereo not drawn) | 50 to 500 nM |
| Nc1ncc(CN2CCC3(CC2)C(=O)Nc2ccc(Cl)cc23)s1 | 50 to 500 nM |
| COCn1cc(CN2CC[C@]3(C[C@@H]2C)OCCc2ccc(Cl)cc23)nn1 | 50 to 500 nM |
| CS(=O)(=O)c1ccc(CN2CCC3(CC2)OC(C(N)=O)c2ccc(Cl)cc23)c(F)c1 (stereo not drawn) | ≥ 500 nM |
| C[C@H]1C[C@@]2(CCN1Cc1cn(Cc3ncc4c(n3)CCOC4)nn1)OCCc1ccc(Cl)cc12 | 50 to 500 nM |
| Cn1cc(CN2CCC3(CC2)C(=O)Nc2ccc(Cl)cc23)cn1 | 50 to 500 nM |
| COC(=O)c1ccc(CN2CCC3(CC2)OC(C(N)=O)c2ccc(Cl)cc23)cn1 (stereo not drawn) | ≤ 50 nM |
| C[C@H]1C[C@@]2(CCN1Cc1cn(Cc3nnc(N(C)C)[nH]3)nn1)OCCc1ccc(Cl)cc12 | 50 to 500 nM |
| Cc1ccc2c(c1)C1(CCN(Cc3cnn(C)c3)CC1)SC2 | ≥ 500 nM |
| CNC(=O)C1OC2(CCN(Cc3cnn(CCS(C)(=O)=O)c3)CC2)c2cc(Cl)ccc21 (stereo not drawn) | 50 to 500 nM |
| NC(=O)C1OC2(CCN(Cc3cnn(C4CCOCC4)c3)CC2)c2cc(Cl)ccc21 (stereo not drawn) | ≤ 50 nM |
| NC(=O)C1OC2(CCN(Cc3cnn(CC(O)C4(O)CCOCC4)c3)CC2)c2cc(Cl)ccc21 (stereo not drawn) | ≤ 50 nM |
| Cc1cc(Cn2cc(CN3CC[C@]4(C[C@@H]3C)OCCc3ccc(Cl)cc34)nn2)cc(=O)[nH]1 | 50 to 500 nM |
| CCc1nnc(Cn2cc(CN3CC[C@]4(C[C@@H]3C)OCCc3ccc(Cl)cc34)nn2)o1 | ≤ 50 nM |
| CN(C)c1ncc(CN2CCC3(CC2)C(=O)Nc2ccc(Cl)cc23)cn1 | 50 to 500 nM |
| C[C@H]1C[C@@]2(CCN1Cc1cn(CC(O)C(C)(C)O)nn1)OCCc1ccc(Cl)cc12 (stereo partly drawn) [Compound 156] | ≤ 50 nM |
| CNC(=O)C1OC2(CCN(Cc3cnn(-c4cnc(C)nc4)c3)CC2)c2cc(Cl)ccc21 (stereo not drawn) | ≤ 50 nM |
| Cc1ccc2c(c1)C1(CCN(Cc3cnn(CCS(C)(=O)=O)c3)CC1)C(=O)N2 | 50 to 500 nM |
| C[C@H]1C[C@@]2(CCN1Cc1cnn(C)c1)OCC(O)c1ccc(Cl)cc12 (stereo partly drawn) [Compound 131] | ≤ 50 nM |
